The measurements presented in this section are drawn from patent US8471005B2.

molecular target: JAK2 (Homo sapiens); construct: host or cells: baculovirus expression system; test: Recombinant Human JAK2 Kinase Assay (TRF); format: biochemical; conditions: JAK2 kinase inhibition, 0.2 μM ATP; read-out: JAK2 Potency
Sequence (O60674 whole entry): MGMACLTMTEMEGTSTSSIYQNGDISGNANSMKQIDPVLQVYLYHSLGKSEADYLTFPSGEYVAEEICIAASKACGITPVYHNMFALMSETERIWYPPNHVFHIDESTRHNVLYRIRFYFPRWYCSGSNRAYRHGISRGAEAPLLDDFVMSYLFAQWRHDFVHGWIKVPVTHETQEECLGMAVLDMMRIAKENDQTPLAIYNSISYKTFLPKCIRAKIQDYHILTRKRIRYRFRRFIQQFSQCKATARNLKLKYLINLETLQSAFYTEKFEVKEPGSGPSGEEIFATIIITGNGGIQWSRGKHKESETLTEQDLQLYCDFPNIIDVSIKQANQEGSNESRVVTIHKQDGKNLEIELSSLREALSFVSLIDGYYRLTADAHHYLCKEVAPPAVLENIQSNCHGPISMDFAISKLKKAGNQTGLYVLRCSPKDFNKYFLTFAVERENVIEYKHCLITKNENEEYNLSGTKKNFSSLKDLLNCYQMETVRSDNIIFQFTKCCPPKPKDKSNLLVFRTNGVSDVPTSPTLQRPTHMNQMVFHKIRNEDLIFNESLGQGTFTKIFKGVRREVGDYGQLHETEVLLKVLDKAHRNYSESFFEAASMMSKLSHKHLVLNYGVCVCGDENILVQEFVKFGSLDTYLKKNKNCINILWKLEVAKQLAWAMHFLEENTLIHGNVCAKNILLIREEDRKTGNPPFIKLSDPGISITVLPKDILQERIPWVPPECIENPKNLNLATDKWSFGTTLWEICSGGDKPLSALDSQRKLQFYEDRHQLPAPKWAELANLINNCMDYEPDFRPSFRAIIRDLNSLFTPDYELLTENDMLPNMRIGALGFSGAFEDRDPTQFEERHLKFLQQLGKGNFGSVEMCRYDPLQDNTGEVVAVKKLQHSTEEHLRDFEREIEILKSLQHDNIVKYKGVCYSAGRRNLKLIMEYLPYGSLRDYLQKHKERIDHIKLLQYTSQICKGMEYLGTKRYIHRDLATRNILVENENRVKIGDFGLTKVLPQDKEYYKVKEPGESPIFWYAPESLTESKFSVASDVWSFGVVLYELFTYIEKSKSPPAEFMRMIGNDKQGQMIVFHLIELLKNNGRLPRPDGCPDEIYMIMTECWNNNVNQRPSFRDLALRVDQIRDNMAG
PARAMETER MEASURED: IC50

MOLECULE | TEST RESULT
CN(c1ccccc1-c1ccc2cnc(Nc3ccc4c(c3)C(C)(C)C(=O)N4)nn12)S(C)(=O)=O | < 100 nM
COc1cc(C2CCN(CC(N)=O)CC2)ccc1Nc1ncc2ccc(-c3ccncc3OC)n2n1 | 100 to 1000 nM
COc1cc(N2CCN(C[C@@H](C)O)CC2)ccc1Nc1ncc2ccc(-c3cc(Cl)ccc3OC)n2n1 | < 100 nM
Brc1ccc(Nc2ncc3cc4ccccc4n3n2)cc1 | > 10000 nM
C[C@H](O)CN1CCC(c2ccc(Nc3ncc4ccc(-c5cccc(NS(C)(=O)=O)c5)n4n3)cc2)CC1 | < 100 nM
CC(C)(C)NS(=O)(=O)c1cccc(-c2ccc3cnc(Nc4ccc5[nH]c(=O)[nH]c5c4)nn23)c1 | < 100 nM
CN1CCOCc2cc(Nc3ncc4ccc(-c5ccc(S(C)(=O)=O)cc5)n4n3)ccc21 | < 100 nM
COc1cc(C2CCN(CC(=O)NC(CO)CO)CC2)ccc1Nc1ncc2ccc(-c3ccccc3OC)n2n1 | 100 to 1000 nM
COc1cc(N2CCCN(C3CCN(C)CC3)CC2)ccc1Nc1ncc2ccc(-c3ccccc3OC)n2n1 | 100 to 1000 nM
COc1ccccc1-c1ccc2cnc(Nc3ccc4cn(CCN5CCOCC5)nc4c3)nn12 | < 100 nM

*Q* # return recorded IC50 for input "COc1ccccc1-c1ccc2cnc(Nc3cnn(CCN4CCOCC4)c3)nn12"
*A* < 100 nM

*Q* # return recorded IC50 for input "CCN(CC)C1CCN(c2ccc(Nc3ncc4ccc(-c5cccc(S(C)(=O)=O)c5)n4n3)cc2)CC1"
*A* < 100 nM

*Q* # return recorded IC50 for input "COc1cc(N2CCC(N3CCN(S(C)(=O)=O)CC3)CC2)ccc1Nc1ncc2ccc(-c3ccccc3OC)n2n1"
*A* < 100 nM
